Method summary: Biodistribution experiments in normal mice after i.v. injection
Format: in vivo
Conditions: male, ddY, mouse, in vivo, iv, total radioactivity, Biodistribution of radioactivity, Small-intestine
Value kind: tissue uptake dose at 1 h (%ID)
Respond with the bare value in %ID.

QUERY: What measured tissue uptake dose at 1 h goes with O=C(O)CC[C@H](NC(=O)[C@H](CCC(=O)O)NC(=O)[C@H](CCC(=O)O)NC(=O)[C@H](CCC(=O)O)NC(=O)[C@H](CCC(=O)O)NC(=O)[C@H](CCC(=O)O)NC(=O)[C@H](CCC(=O)O)NC(=O)[C@H](CCC(=O)O)NC(=O)[C@H](CCC(=O)O)NC(=O)[C@H](CCC(=O)O)NC(=O)[C@H](CCC(=O)O)NC(=O)[C@H](CCC(=O)O)NC(=O)[C@H](CCC(=O)O)NC(=O)[C@H](CCC(=O)O)NC(=O)CN1CCN(CC(=O)O)CCN(CC(=O)O)CCN(CC(=O)O)CC1)C(=O)O [^67Ga-DOTA-(L-Glu)14, metal not drawn] ?
RESULT: 0.13

###

Task for the reader: assign each of the following compounds its reported tissue uptake dose at 1 h.
Method summary: Biodistribution experiments in normal mice after i.v. injection
Format: in vivo
Conditions: male, ddY, mouse, in vivo, iv, total radioactivity, Biodistribution of radioactivity, Brain
Where a SMILES comes first, the peptide text is derived from it. [ ]: non-standard residue; d: D form. The star is where a group is joined. DOTA = O=C(O)CN1CCN(CC(=O)O)CCN(CC(=O)*)CCN(CC(=O)O)CC1
Respond with the bare value in %ID.

QUERY: What measured tissue uptake dose at 1 h goes with O=C(O)CC[C@H](NC(=O)[C@H](CCC(=O)O)NC(=O)[C@H](CCC(=O)O)NC(=O)[C@H](CCC(=O)O)NC(=O)[C@H](CCC(=O)O)NC(=O)[C@H](CCC(=O)O)NC(=O)[C@H](CCC(=O)O)NC(=O)[C@H](CCC(=O)O)NC(=O)[C@H](CCC(=O)O)NC(=O)[C@H](CCC(=O)O)NC(=O)[C@H](CCC(=O)O)NC(=O)[C@H](CCC(=O)O)NC(=O)[C@H](CCC(=O)O)NC(=O)[C@H](CCC(=O)O)NC(=O)CN1CCN(CC(=O)O)CCN(CC(=O)O)CCN(CC(=O)O)CC1)C(=O)O [^67Ga-DOTA-(L-Glu)14, metal not drawn] ?
RESULT: 0.01

QUERY: Queued: O=C(O)C[C@@H](NC(=O)[C@@H](CC(=O)O)NC(=O)[C@@H](CC(=O)O)NC(=O)[C@@H](CC(=O)O)NC(=O)[C@@H](CC(=O)O)NC(=O)[C@@H](CC(=O)O)NC(=O)[C@@H](CC(=O)O)NC(=O)[C@@H](CC(=O)O)NC(=O)CN1CCN(CC(=O)O)CCN(CC(=O)O)CCN(CC(=O)O)CC1)C(=O)O [^67Ga-DOTA-(D-Asp)8, metal not drawn] ({DOTA}-[dD][dD][dD][dD][dD][dD][dD][dD]-OH)
RESULT: 0.01

QUERY: Queued: O=C(O)C[C@@H](NC(=O)[C@@H](CC(=O)O)NC(=O)CN1CCN(CC(=O)O)CCN(CC(=O)O)CCN(CC(=O)O)CC1)C(=O)O [^67Ga-DOTA-(D-Asp)2, metal not drawn] ({DOTA}-[dD]-[dD]-OH)
RESULT: 0.02

###

Method summary: Biodistribution experiments in normal mice after i.v. injection
Assay type: in vivo
Conditions: male, ddY, mouse, in vivo, iv, total radioactivity, Biodistribution of radioactivity, Bone (Femur)
Procedure: Experiments with animals were conducted in strict accordance with the Guidelines for the Care and Use of Laboratory Animals of Kanazawa University. […] Complete left femurs were isolated as representative bone samples, radioactivity was determined using gamma counters (AccuFLEX γ ARC-8001 in the case of ^18F, Hitachi, Ltd.), and background counts and physical decay were corrected during counting.
Where a SMILES comes first, the peptide text is derived from it. [ ]: non-standard residue; d: D form. The star is where a group is joined. DOTA = O=C(O)CN1CCN(CC(=O)O)CCN(CC(=O)*)CCN(CC(=O)O)CC1
Value kind: tissue uptake dose at 1 h (%ID)
Respond with the bare value in %ID.

QUERY: What measured tissue uptake dose at 1 h goes with O=C(O)CC[C@@H](NC(=O)[C@@H](CCC(=O)O)NC(=O)[C@@H](CCC(=O)O)NC(=O)[C@@H](CCC(=O)O)NC(=O)[C@@H](CCC(=O)O)NC(=O)[C@@H](CCC(=O)O)NC(=O)[C@@H](CCC(=O)O)NC(=O)[C@@H](CCC(=O)O)NC(=O)[C@@H](CCC(=O)O)NC(=O)[C@@H](CCC(=O)O)NC(=O)[C@@H](CCC(=O)O)NC(=O)[C@@H](CCC(=O)O)NC(=O)[C@@H](CCC(=O)O)NC(=O)[C@@H](CCC(=O)O)NC(=O)CN1CCN(CC(=O)O)CCN(CC(=O)O)CCN(CC(=O)O)CC1)C(=O)O [^67Ga-DOTA-(D-Glu)14, metal not drawn] ?
RESULT: 11.8

QUERY: Queued: O=C(O)C[C@@H](NC(=O)[C@@H](CC(=O)O)NC(=O)[C@@H](CC(=O)O)NC(=O)[C@@H](CC(=O)O)NC(=O)[C@@H](CC(=O)O)NC(=O)[C@@H](CC(=O)O)NC(=O)[C@@H](CC(=O)O)NC(=O)[C@@H](CC(=O)O)NC(=O)CN1CCN(CC(=O)O)CCN(CC(=O)O)CCN(CC(=O)O)CC1)C(=O)O [^67Ga-DOTA-(D-Asp)8, metal not drawn] ({DOTA}-[dD][dD][dD][dD][dD][dD][dD][dD]-OH)
RESULT: 11.6

QUERY: Queued: O=C(O)CC[C@H](NC(=O)[C@H](CCC(=O)O)NC(=O)[C@H](CCC(=O)O)NC(=O)[C@H](CCC(=O)O)NC(=O)[C@H](CCC(=O)O)NC(=O)[C@H](CCC(=O)O)NC(=O)[C@H](CCC(=O)O)NC(=O)[C@H](CCC(=O)O)NC(=O)[C@H](CCC(=O)O)NC(=O)[C@H](CCC(=O)O)NC(=O)[C@H](CCC(=O)O)NC(=O)[C@H](CCC(=O)O)NC(=O)[C@H](CCC(=O)O)NC(=O)[C@H](CCC(=O)O)NC(=O)CN1CCN(CC(=O)O)CCN(CC(=O)O)CCN(CC(=O)O)CC1)C(=O)O [^67Ga-DOTA-(L-Glu)14, metal not drawn]
RESULT: 11.1

QUERY: Queued: O=C(O)C[C@@H](NC(=O)[C@@H](CC(=O)O)NC(=O)CN1CCN(CC(=O)O)CCN(CC(=O)O)CCN(CC(=O)O)CC1)C(=O)O [^67Ga-DOTA-(D-Asp)2, metal not drawn] ({DOTA}-[dD]-[dD]-OH)
RESULT: 0.88

QUERY: Queued: O=C(O)C[C@@H](NC(=O)[C@@H](CC(=O)O)NC(=O)[C@@H](CC(=O)O)NC(=O)[C@@H](CC(=O)O)NC(=O)[C@@H](CC(=O)O)NC(=O)CN1CCN(CC(=O)O)CCN(CC(=O)O)CCN(CC(=O)O)CC1)C(=O)O [^67Ga-DOTA-(D-Asp)5, metal not drawn] ({DOTA}-[dD][dD][dD][dD][dD]-OH)
RESULT: 5.01

###

Method summary: Biodistribution experiments in normal mice after i.v. injection
Assay type: in vivo
Conditions: male, ddY, mouse, in vivo, iv, total radioactivity, mice, i.v., 60 min after injection, mean (SD); read-out: Biodistribution of radioactivity, Bone (Femur)
Where a SMILES comes first, the peptide text is derived from it. [ ]: non-standard residue; d: D form. The star is where a group is joined. DOTA = O=C(O)CN1CCN(CC(=O)O)CCN(CC(=O)*)CCN(CC(=O)O)CC1
Value kind: tissue uptake dose at 1 h
Please answer using the number first and the unit second.

QUERY: What measured tissue uptake dose at 1 h goes with O=C(O)C[C@@H](NC(=O)[C@@H](CC(=O)O)NC(=O)[C@@H](CC(=O)O)NC(=O)[C@@H](CC(=O)O)NC(=O)[C@@H](CC(=O)O)NC(=O)[C@@H](CC(=O)O)NC(=O)[C@@H](CC(=O)O)NC(=O)[C@@H](CC(=O)O)NC(=O)[C@@H](CC(=O)O)NC(=O)[C@@H](CC(=O)O)NC(=O)[C@@H](CC(=O)O)NC(=O)CN1CCN(CC(=O)O)CCN(CC(=O)O)CCN(CC(=O)O)CC1)C(=O)O [^67Ga-DOTA-(D-Asp)11, metal not drawn] ({DOTA}-[dD][dD][dD][dD][dD][dD][dD][dD][dD][dD][dD]-OH) ?
RESULT: 15.3 %ID

###

Method summary: Biodistribution experiments in normal mice after i.v. injection
Assay type: in vivo
Conditions: male, ddY, mouse, in vivo, iv, total radioactivity, Biodistribution of radioactivity, Heart
Where a SMILES comes first, the peptide text is derived from it. [ ]: non-standard residue; d: D form. The star is where a group is joined. DOTA = O=C(O)CN1CCN(CC(=O)O)CCN(CC(=O)*)CCN(CC(=O)O)CC1
Task for the reader: assign each of the following compounds its reported tissue uptake dose at 3 h.
Respond with the bare value in %ID.

QUERY: What measured tissue uptake dose at 3 h goes with O=C(O)C[C@@H](NC(=O)[C@@H](CC(=O)O)NC(=O)[C@@H](CC(=O)O)NC(=O)[C@@H](CC(=O)O)NC(=O)[C@@H](CC(=O)O)NC(=O)[C@@H](CC(=O)O)NC(=O)[C@@H](CC(=O)O)NC(=O)[C@@H](CC(=O)O)NC(=O)CN1CCN(CC(=O)O)CCN(CC(=O)O)CCN(CC(=O)O)CC1)C(=O)O [^67Ga-DOTA-(D-Asp)8, metal not drawn] ({DOTA}-[dD][dD][dD][dD][dD][dD][dD][dD]-OH) ?
RESULT: 0.05

QUERY: Queued: O=C(O)C[C@@H](NC(=O)[C@@H](CC(=O)O)NC(=O)[C@@H](CC(=O)O)NC(=O)[C@@H](CC(=O)O)NC(=O)[C@@H](CC(=O)O)NC(=O)CN1CCN(CC(=O)O)CCN(CC(=O)O)CCN(CC(=O)O)CC1)C(=O)O [^67Ga-DOTA-(D-Asp)5, metal not drawn] ({DOTA}-[dD][dD][dD][dD][dD]-OH)
RESULT: 0.06
